measurement_description: logP by HPLC on reversed-phase columns (C 18), EEC directive 79/831 Annex V.A8
Assay type: physicochemical
setup_conditions: reversed-phase HPLC column (C 18); LC-MS, neutral range, pH 7.8, 0.001 molar aqueous ammonium bicarbonate and acetonitrile; read-out: log P (***)
Give chromatographic logP for every item shown.
Write no unit; give the number alone.

# chromatographic logP of Clc1ccc(-c2csc(N=C3CCCCN3)n2)cc1Cl [compound 52] = 3.93

# chromatographic logP of CC(=O)N1CCCCC1=Nc1nc(-c2ccc(Cl)cc2Cl)cs1 [compound 35] = 4.33

----------
measurement_description: logP by HPLC on reversed-phase columns (C 18), EEC directive 79/831 Annex V.A8
Format: physicochemical
setup_conditions: acidic range, pH 2.3, 0.1% aqueous phosphoric acid and acetonitrile
Give log P (*) for every item shown.
Write no unit; give the number alone.

# log P (*) of Fc1cc(F)c(Oc2ccccc2-c2csc(N=C3CCCCN3)n2)c(F)c1 = 2.02

# log P (*) of Clc1cccc(Cc2csc(N=C3CCCCN3)n2)c1 = 1.58

# log P (*) of FC(F)(F)Oc1ccccc1-c1csc(N=C2CCCCN2)n1 = 1.77

# log P (*) of Clc1ccccc1-c1csc(N=C2CCCCN2)n1 = 1.63

# log P (*) of CC(=O)N1CCCCC1=Nc1nc(-c2ccc3c(c2)OCO3)cs1 = 2.96

# log P (*) of Cc1ccc(Oc2ccccc2-c2csc(N=C3CCCCN3)n2)cc1 = 2.17

# log P (*) of Clc1ccc(Cc2ccccc2-c2csc(N=C3CCCCN3)n2)cc1Cl = 2.36

# log P (*) of Fc1ccc(Oc2ccccc2-c2csc(N=C3CCCCN3)n2)cc1F = 1.83

# log P (*) of FC(F)(F)c1ccccc1-c1csc(N=C2CCCCN2)n1 = 1.76

# log P (*) of Fc1ccc(F)c(-c2csc(N=C3CCCCN3)n2)c1 = 1.58

# log P (*) of Clc1ccc(Oc2ccccc2-c2csc(N=C3CCCCN3)n2)c(Cl)c1 = 2.42

# log P (*) of CC(C)(C)c1cc(Oc2ccccc2-c2csc(N=C3CCCN3)n2)ccc1Cl = 3.09

# log P (*) of Fc1cccc(-c2csc(N=C3CCCCN3)n2)c1F = 1.58

# log P (*) of CCOc1ccccc1-c1csc(N=C2CCCCN2C(C)=O)n1 = 2.71

# log P (*) of CC(=O)N1CCCCC1=Nc1nc(-c2ccccc2Oc2ccccc2)cs1 = 4.41

# log P (*) of CC(C)(C)c1ccc(-c2csc(N=C3CCCCN3)n2)cc1 = 2.2

----------
measurement_description: logP by HPLC on reversed-phase columns (C 18), EEC directive 79/831 Annex V.A8
Format: physicochemical
setup_conditions: acidic range, pH 2.3, 0.1% aqueous phosphoric acid and acetonitrile
Give log P (*) for every item shown.
Write no unit; give the number alone.

# log P (*) of Fc1c(-c2csc(N=C3CCCCN3)n2)cccc1C(F)(F)F = 1.84

# log P (*) of Cc1cccc(-c2csc(N=C3CCCCN3)n2)n1 = 0.29

----------
measurement_description: logP by HPLC on reversed-phase columns (C 18), EEC directive 79/831 Annex V.A8
Type: physicochemical
setup_conditions: LC-MS, acidic range, pH 2.7, 0.1% aqueous formic acid and acetonitrile
property_name: log P (**)
Write no unit; give the number alone.

# log P (**) of COc1ccc(-c2csc(N=C3CCCCN3)n2)cc1OC [compound 27] = 1.35

# log P (**) of CC(=O)N1CCCCC1=Nc1nc(-c2ccc3c(c2)OCO3)cs1 [compound 39] = 2.96

# log P (**) of Cc1sc(N=C2CCCCN2)nc1-c1cccc(F)c1F [compound 44] = 1.7

# log P (**) of Fc1cccc(-c2csc(N=C3CCCCN3)n2)c1F [compound 25] = 1.58

# log P (**) of CC(=O)N1CCCCC1=Nc1nc(-c2ccccc2Oc2ccc(F)cc2F)cs1 [compound 16] = 4.36

# log P (**) of FC(F)(F)c1cc(Oc2ccccc2-c2csc(N=C3CCCCN3)n2)ccc1Cl [compound 14] = 2.58

# log P (**) of Clc1cccc(Cl)c1Cc1ccccc1-c1csc(N=C2CCCCN2)n1 [compound 91] = 2.16
